protocolDescription: recombinant barcode read abundance after kanamycin selection (control-corrected) (log10(CPM+1)); higher = more efficient recombination; sequences stand for … in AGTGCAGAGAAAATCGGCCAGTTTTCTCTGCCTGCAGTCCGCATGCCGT…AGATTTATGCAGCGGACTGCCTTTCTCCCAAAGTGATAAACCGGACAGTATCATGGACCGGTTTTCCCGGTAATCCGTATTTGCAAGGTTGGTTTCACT; site = the 11-nt target
Assign Met to entries whose recombinant barcode read abundance (log10) meets or exceeds 0.3; assign Not met to the rest.

Worked set:
CTAACTACTTGGGTTCTAACCTGTTGCTT (site AGTTGGCCTCT): Met
GGGCAGGCTTGGGTTCTAACCTGTTGCCT (site GGGCAGGCTAG): Met
CGACATACTTGGGTTCTAACCTGTTGCGT (site CGACATACTAC): Met
TTAAAACCTTGGGTTCTAACCTGTTGCCT (site ATAAAACCTAG): Not met
GTGTGTGCTTGGGTTCTAACCTGTTGCCT (site GTGTGTTCTAG): Not met

For this sequence, is measured recombinant barcode read abundance (log10) 0.3 or higher? AGGTATGCTTGGGTTCTAACCTGTTGCCT (site AGGTATGCTAG)
Met

---

protocolDescription: recombinant UMI read abundance after kanamycin selection (control-corrected) (log10(CPM+1)); higher = more efficient recombination; extreme values may be limits of the assay; sequences stand for … in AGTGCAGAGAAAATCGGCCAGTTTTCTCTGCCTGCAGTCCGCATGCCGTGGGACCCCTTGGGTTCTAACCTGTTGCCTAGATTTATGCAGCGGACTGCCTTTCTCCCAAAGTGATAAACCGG…AGGTTGGTTTCACT; site = the 11-nt donor
Assign 1 to entries whose recombinant UMI read abundance (log10) meets or exceeds 0.02; assign -1 to the rest.

Worked set:
CGTCTTACATGGACCGGTTTTCCCGGTAATCCGTATTTGTA (site CGTCTTACTTA): -1
TAAGCTGCATGGACCGGTTTTCCCGGTAATCCGTATTTGTG (site TGAGCTGCTCA): -1
CCAGGTGCATGGACCGGTTTTCCCGGTAATCCGTATTTGTT (site CCAGGTGCTAT): 1
ACACATCCATGGACCGGTTTTCCCGGTAATCCGTATTTGAC (site ACACATCCTGA): -1
CCCGGGCCATGGACCGGTTTTCCCGGTAATCCGTATTTGCA (site CCCGGACCTTG): -1

For this sequence, is measured recombinant UMI read abundance (log10) 0.02 or higher? TCCGGGTCATGGACCGGTTTTCCCGGTAATCCGTATTTGTA (site TCCGGGTCTTA)
1

---

protocolDescription: recombinant UMI read abundance after kanamycin selection (control-corrected) (log10(CPM+1)); higher = more efficient recombination; extreme values may be limits of the assay; sequences stand for … in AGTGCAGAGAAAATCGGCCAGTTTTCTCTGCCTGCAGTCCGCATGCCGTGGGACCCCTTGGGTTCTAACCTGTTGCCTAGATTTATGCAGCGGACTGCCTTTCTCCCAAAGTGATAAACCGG…AGGTTGGTTTCACT; site = the 11-nt donor
The sequences listed here are annotated with their recombinant UMI read abundance (log10).
The answer should be a number; do not append a unit.

GGGGCACCATGGACCGGTTTTCCCGGTAATCCGTATTTGCA (site GGGGCACCTTC): 0.0181
AGCCTAGCATGGACCGGTTTTCCCGGTAATCCGTATTTGTC (site AGCCTAGCTCA): 0.0312

Consider the sequence shown here: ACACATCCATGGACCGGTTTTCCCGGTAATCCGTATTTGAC (site ACACGTCCTGT) What is its recorded recombinant UMI read abundance (log10)?
0.84

Consider the sequence shown here: TCTGCCGCATGGACCGGTTTTCCCGGTAATCCGTATTTGAG (site TCTGCCGCTCT) What is its recorded recombinant UMI read abundance (log10)?
0.0275

Consider the sequence shown here: GCCACGCCATGGACCGGTTTTCCCGGTAATCCGTATTTGTA (site GCCACTCCTTA) What is its recorded recombinant UMI read abundance (log10)?
0

Consider the sequence shown here: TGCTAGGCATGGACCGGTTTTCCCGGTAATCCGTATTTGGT (site TCCTAGGCTAC) What is its recorded recombinant UMI read abundance (log10)?
0.0105

Consider the sequence shown here: CTCTCCTCATGGACCGGTTTTCCCGGTAATCCGTATTTGCC (site CGCTCCTCTGG) What is its recorded recombinant UMI read abundance (log10)?
2.57

Consider the sequence shown here: TAGGTAACATGGACCGGTTTTCCCGGTAATCCGTATTTGAC (site TAGGTAACTGT) What is its recorded recombinant UMI read abundance (log10)?
2.17

Consider the sequence shown here: AGGAGGACATGGACCGGTTTTCCCGGTAATCCGTATTTGCA (site AGGACGACTTG) What is its recorded recombinant UMI read abundance (log10)?
0.4

Consider the sequence shown here: TCAACGGCATGGACCGGTTTTCCCGGTAATCCGTATTTGCC (site TCAACGGCTGG) What is its recorded recombinant UMI read abundance (log10)?
0.143

Consider the sequence shown here: CGTTTGGCATGGACCGGTTTTCCCGGTAATCCGTATTTGAT (site CGTTTGGCTAG) What is its recorded recombinant UMI read abundance (log10)?
1.09

Consider the sequence shown here: CTAGTTTCATGGACCGGTTTTCCCGGTAATCCGTATTTGAC (site CTAGTTTCTGT) What is its recorded recombinant UMI read abundance (log10)?
2.05

Consider the sequence shown here: TTAGCTTCATGGACCGGTTTTCCCGGTAATCCGTATTTGTG (site TTAGCTACTCA) What is its recorded recombinant UMI read abundance (log10)?
0.0149

Consider the sequence shown here: CTTCCTACATGGACCGGTTTTCCCGGTAATCCGTATTTGAG (site CTGCCTACTCT) What is its recorded recombinant UMI read abundance (log10)?
0.0339

Consider the sequence shown here: AGAGCATCATGGACCGGTTTTCCCGGTAATCCGTATTTGCT (site AGAGCATCTAG) What is its recorded recombinant UMI read abundance (log10)?
2.16

Consider the sequence shown here: TGTTCCCCATGGACCGGTTTTCCCGGTAATCCGTATTTGTA (site TGTTCCCCTTT) What is its recorded recombinant UMI read abundance (log10)?
0.0256

Consider the sequence shown here: TACGTGACATGGACCGGTTTTCCCGGTAATCCGTATTTGCT (site TACGTGACTAG) What is its recorded recombinant UMI read abundance (log10)?
2.43

Consider the sequence shown here: CGAGGCCCATGGACCGGTTTTCCCGGTAATCCGTATTTGGG (site CGAGGGCCTCC) What is its recorded recombinant UMI read abundance (log10)?
0.016

Consider the sequence shown here: ACTTGCCCATGGACCGGTTTTCCCGGTAATCCGTATTTGAT (site ACTTGCCCTAT) What is its recorded recombinant UMI read abundance (log10)?
0.398

---

protocolDescription: recombinant UMI read abundance after kanamycin selection (control-corrected) (log10(CPM+1)); higher = more efficient recombination; extreme values may be limits of the assay; sequences stand for … in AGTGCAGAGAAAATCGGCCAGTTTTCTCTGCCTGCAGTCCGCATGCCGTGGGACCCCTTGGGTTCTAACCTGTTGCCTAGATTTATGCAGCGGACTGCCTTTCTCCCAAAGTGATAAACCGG…AGGTTGGTTTCACT; site = the 11-nt donor
Assign satisfied to entries whose recombinant UMI read abundance (log10) meets or exceeds 0.3; assign not satisfied to the rest.

Worked set:
GGCTTAGCATGGACCGGTTTTCCCGGTAATCCGTATTTGAG (site GGCTTAGCTCT): satisfied
CCCTACACATGGACCGGTTTTCCCGGTAATCCGTATTTGCT (site CGCTACACTAG): satisfied
TGGATACCATGGACCGGTTTTCCCGGTAATCCGTATTTGTT (site TGGATACCTAA): not satisfied
GAATATCCATGGACCGGTTTTCCCGGTAATCCGTATTTGCT (site GAGTATCCTAG): not satisfied

For this sequence, is measured recombinant UMI read abundance (log10) 0.3 or higher? AGGGATCCATGGACCGGTTTTCCCGGTAATCCGTATTTGTT (site CGGAATCCTAA)
not satisfied

For this sequence, is measured recombinant UMI read abundance (log10) 0.3 or higher? CCGATTACATGGACCGGTTTTCCCGGTAATCCGTATTTGCT (site CCGCTTACTAG)
not satisfied

For this sequence, is measured recombinant UMI read abundance (log10) 0.3 or higher? CGGAAGCCATGGACCGGTTTTCCCGGTAATCCGTATTTGAT (site CGGAAGCCTAT)
satisfied

For this sequence, is measured recombinant UMI read abundance (log10) 0.3 or higher? TACCTTACATGGACCGGTTTTCCCGGTAATCCGTATTTGGA (site TACCTTACTTC)
not satisfied

For this sequence, is measured recombinant UMI read abundance (log10) 0.3 or higher? CAGCCGACATGGACCGGTTTTCCCGGTAATCCGTATTTGGG (site CAGCCGACTCC)
not satisfied

For this sequence, is measured recombinant UMI read abundance (log10) 0.3 or higher? CGTGTTACATGGACCGGTTTTCCCGGTAATCCGTATTTGAT (site CGTGTTACTAT)
satisfied

For this sequence, is measured recombinant UMI read abundance (log10) 0.3 or higher? AGGATTCCATGGACCGGTTTTCCCGGTAATCCGTATTTGTT (site AGGATTCCTAA)
not satisfied

For this sequence, is measured recombinant UMI read abundance (log10) 0.3 or higher? GGCAACCCATGGACCGGTTTTCCCGGTAATCCGTATTTGAA (site GGCAAGCCTTT)
not satisfied

For this sequence, is measured recombinant UMI read abundance (log10) 0.3 or higher? TCAAGTCCATGGACCGGTTTTCCCGGTAATCCGTATTTGTA (site TCAAGTCCTTA)
satisfied

For this sequence, is measured recombinant UMI read abundance (log10) 0.3 or higher? CTGTCTCCATGGACCGGTTTTCCCGGTAATCCGTATTTGTC (site CTGTCTCCTGA)
satisfied

For this sequence, is measured recombinant UMI read abundance (log10) 0.3 or higher? ACCGTATCATGGACCGGTTTTCCCGGTAATCCGTATTTGGA (site ACAGTATCTTG)
satisfied

For this sequence, is measured recombinant UMI read abundance (log10) 0.3 or higher? GCGAACACATGGACCGGTTTTCCCGGTAATCCGTATTTGCT (site GCGAAGACTAG)
not satisfied
